Values were extracted from patent US20170088602A1.

Biological target: T1, human myostatin (mature, recombinant; R&D Systems) (human, UniProt O14793 267-375)
T1 sequence: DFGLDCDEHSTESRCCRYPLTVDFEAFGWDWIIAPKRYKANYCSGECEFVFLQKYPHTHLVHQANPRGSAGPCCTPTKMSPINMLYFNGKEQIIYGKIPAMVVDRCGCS
Assay: cell-based or functional assay

binder | unit.descriptor | ARE-luciferase IC50
3116_C01 (designed binder) MGVSDVPRDLEVVAATPTSLLISWSLPNPGIAHYYRITYGETGGNSPVQEFTVPGRGVTATISGLKPGVDYTITVYAVTLTGSDTIFYKPISINYRTEIDKPSQHHHHHH | pM | 100
2062_G02 (designed binder, also called ATI-1134) MGVSDVPRDLEVVAATPTSLLISWVSPRGRARYYRITYGETGGNSPVQEFTVPGRGSTATISGLKPGVDYTITVYAVTIYRDGMSHHDPISINYRTEIDKPSQHHHHHH | pM | 205000
2987_A06 (designed binder) MGVSDVPRDLEVVAATPTSLLISWSLPHAGHAHYYRITYGETGGNSPVQEFTVPGRGVTATISGLKPGVDYTITVYAVTLTKSKIIHYMPISINYRTEIDKPSQHHHHHH | pM | 100
3008_B08 (designed binder) MGVSDVPRDLEVVAATPTSLLISWSLPHAGDAHYYRITYGETGGNSPVQEFTVPGRGVTATISGLKPGVDYTITVYAVTVTRAGFYRYKPISINYRTEIDKPSQHHHHHH | pM | 350
3116_C06 (designed binder) MGVSDVPRDLEVVAATPTSLLISWSLPRPGNAHYYRITYGETGGNSPVQEFTVPGRGVTATISGLKPGVDYTITVYAVTVTGKDVIKYKPISINYRTEIDKPSQHHHHHH | pM | 140
3008_A03 (designed binder) MGVSDVPRDLEVVAATPTSLLISWSLPHHGFGHYYRITYGETGGNSPVQEFTVPGRGVTATISGLKPGVDYTITVYAVTVTATGIIIYKPISINYRTEIDKPSQHHHHHH | pM | 110
1979_B06 (designed binder, monoAdnectin with His6 tag; also called ATI-1133) MGVSDVPRDLEVVAATPTSLLISWSLPHAGHVNYYRITYGETGGNSPVQEFTVPGRGVTATISGLKPGVDYTITVYAVTLTKSQMIHYMPISINYRTEIDKPSQHHHHHH | pM | 110
2524_H11 (designed binder) MGVSDVPRDLEVVAATPTSLLISWSLPHAGHAHYYRITYGETGGNSPVQEFTVPGRGVTATISGLKPGVDYTITVYAVTVSSTKVIVYLPISINYRTEIDKPSQHHHHHH | pM | 30
ATI-1277 [N-ethylmaleimide] (designed binder, N-ethylmaleimide on the Cys of the EGSGC tail, cysteine mutant of 2525_D05) MGVSDVPRDLEVVAATPTSLLISWSLPYAGHLNYYRITYGETGGNSPVQEFTVPGRGVTATISGLKPGVDYTITVYAVTLTKSQLIHYMPISINYRTEGSGCHHHHHH | pM | 140
2987_C02 (designed binder) MGVSDVPRDLEVVAATPTSLLISWSLPYAGHAHYYRITYGETGGNSPVQEFTVPGRGVTATISGLKPGVDYTITVYAVTLTKSKIIHYMPISINYRTEIDKPSQHHHHHH | pM | 60
2525_D02 (designed binder) MGVSDVPRDLEVVAATPTSLLISWTLPHAGRAHYYRITYGETGGNSPVQEFTVPGRGVTATISGLKPGVDYTITVYAVTVTTTSVILYKPISINYRTEIDKPSQHHHHHH | pM | 50
3007_C09 (designed binder) MGVSDVPRDLEVVAATPTSLLISWSLPHRGVANYYRITYGETGGNSPVQEFTVPGRGVTATISGLKPGVDYTITVYAVTLTGANVIIYKPISINYRTEIDKPSQHHHHHH | pM | 40
2987_E08 (designed binder) MGVSDVPRDLEVVAATPTSLLISWTLPHAGRAHYYRITYGETGGNSPVQEFTVPGRGVTATISGLKPGVDYTITVYAVTVSSTKVIHYKPISINYRTEIDKPSQHHHHHH | pM | 50
3116_H06 (designed binder) MGVSDVPRDLEVVAATPTSLLISWDAPAGLARYYRITYGETGGNSPVQEFTVVGRGNTATISGLKPGVDYTITVYAVTIFRDGVVNYGPISINYRTEIDKPSQHHHHHH | pM | 100
ATI-1275 [N-ethylmaleimide] (designed binder, N-ethylmaleimide on the Cys of the EGSGC tail, cysteine mutant of 2524_D09) MGVSDVPRDLEVVAATPTSLLISWYLPYPAHMNYYRITYGETGGNSPVQEFTVPGRGLTATISGLKPGVDYTITVYAVTLTKSQILHHRPISINYRTEGSGCHHHHHH | pM | 30
3115_E06 (designed binder) MGVSDVPRDLEVVAATPTSLLISWDAPAGLARYYRITYGETGGNSPVQEFTVVGRGNTATISGLKPGVDYTITVYAVTIFRDGPVTWDPISINYRTEIDKPSQHHHHHH | pM | 70
